Data credit: ChEMBL document CHEMBL3232962

- Tested on: MCF7
- procedureDetails: cells
- measurementContext: Homo sapiens, MCF7, 48 h
Could you please report measured IC50 for the items listed next?
Answers are plain numbers, in µM.

Inquiry: # get_value(readout='IC50', item= O=C(c1ccc(Cl)cc1)N1CCc2nc(N3CCN(c4ncccn4)CC3)ncc2C1 )
Reply text: 42.2

Inquiry: # get_value(readout='IC50', item= Nc1ncc2c(n1)CCN(C(=O)c1cc(Cl)c(O)cc1O)C2 )
Reply text: 4.41

Inquiry: # get_value(readout='IC50', item= Cc1ncc2c(n1)CCN(C(=O)c1cc(Cl)c(O)cc1O)C2 )
Reply text: 1.91

Inquiry: # get_value(readout='IC50', item= O=C(c1cc(Cl)c(O)cc1O)N1CCc2nc(N3CCN(c4ncccn4)CC3)ncc2C1 )
Reply text: 10.2

Inquiry: # get_value(readout='IC50', item= COc1ccc(OC)c(CN2CCc3nc(N4CCN(c5ncccn5)CC4)ncc3C2)c1 )
Reply text: 53.2

Let's switch to this molecule now.
Inquiry: # get_value(readout='IC50', item= O=C(c1ccc(O)cc1O)N1CCc2nc(N3CCN(c4ncccn4)CC3)ncc2C1 )
Reply text: 17.5
